# Activity (relative rate of hydrolysis) per record follows
# MEASURED_ON: HvExoI W434H mutant (Hordeum vulgare, UniProt Q9XEI3, W459H)
# Sequence (Q9XEI3 26-630 W459H): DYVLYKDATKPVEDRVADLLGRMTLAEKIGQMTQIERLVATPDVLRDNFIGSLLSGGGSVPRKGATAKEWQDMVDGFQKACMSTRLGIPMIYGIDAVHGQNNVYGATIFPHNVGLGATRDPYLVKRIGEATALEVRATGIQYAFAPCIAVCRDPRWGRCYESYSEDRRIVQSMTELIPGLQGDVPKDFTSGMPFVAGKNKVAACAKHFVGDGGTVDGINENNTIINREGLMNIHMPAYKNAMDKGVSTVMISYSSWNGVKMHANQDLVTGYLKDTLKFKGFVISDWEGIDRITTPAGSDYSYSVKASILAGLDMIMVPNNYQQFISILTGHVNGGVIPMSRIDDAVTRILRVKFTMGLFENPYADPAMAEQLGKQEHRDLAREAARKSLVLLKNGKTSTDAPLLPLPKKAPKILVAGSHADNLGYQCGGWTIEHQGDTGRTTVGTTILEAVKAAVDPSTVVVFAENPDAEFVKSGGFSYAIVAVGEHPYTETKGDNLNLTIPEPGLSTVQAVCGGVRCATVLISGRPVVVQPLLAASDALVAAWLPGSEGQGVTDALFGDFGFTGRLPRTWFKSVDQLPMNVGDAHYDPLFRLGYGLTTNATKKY
# TEST_DETAILS: Relative rates of hydrolysis of poly-, oligosaccharides and aryl-glycosides
# Format: biochemical
# ASSAY_SETUP: substance is the substrate
PROPERTY_MEASURED: Activity (relative rate of hydrolysis)

# COMPOUND, PROPERTY_MEASURED, DATA_VALUE
data = [
    ("OC[C@H]1O[C@@H](O[C@@H]2[C@@H](O)[C@H](O[C@H]3[C@H](O)[C@@H](CO)OC(O)[C@@H]3O)O[C@H](CO)[C@H]2O)[C@H](O)[C@@H](O)[C@@H]1O (stereo partly shown)", "Activity (relative rate of hydrolysis)", "1.5 ± 0.04 μmole/min per mg protein"),
    ("OC[C@H]1O[C@@H](O[C@@H]2[C@@H](O)[C@H](O[C@@H]3[C@@H](O)[C@H](O[C@@H]4[C@@H](O)[C@H](O[C@@H]5[C@@H](O)[C@H](O[C@@H]6[C@@H](O)[C@H](O[C@@H]7[C@@H](O)[C@H](O)O[C@H](CO)[C@H]7O)O[C@H](CO)[C@H]6O)O[C@H](CO)[C@H]5O)O[C@H](CO)[C@H]4O)O[C@H](CO)[C@H]3O)O[C@H](CO)[C@H]2O)[C@H](O)[C@@H](O)[C@@H]1O", "Activity (relative rate of hydrolysis)", "1.6 ± 0.1 μmole/min per mg protein"),
    ("OC[C@H]1O[C@@H](O[C@H]2C(O)O[C@H](CO)[C@@H](O)[C@@H]2O)[C@H](O)[C@@H](O)[C@@H]1O (stereo partly shown)", "Activity (relative rate of hydrolysis)", "0.6 ± 0.1 μmole/min per mg protein"),
    ("OC[C@H]1O[C@@H](O[C@H]2[C@H](O)[C@@H](CO)OC(O)[C@@H]2O)[C@H](O)[C@@H](O)[C@@H]1O (stereo partly shown)", "Activity (relative rate of hydrolysis)", "0.8 ± 0.04 μmole/min per mg protein"),
]
